experiment: Cell viability by MTT assay (cytotoxicity), Huh-7
test_settings: human, Huh-7 cells
outcome_measure: CC50 at 24 h (µM)

>>> quantitative_result("CCCCCCCCCCCCOC(=O)c1cc(O)c(O)c(O)c1 [LG, Lauryl Gallate]")
83.1

---

experiment: Cell viability by MTT assay (cytotoxicity), Vero-E6
test_settings: African green monkey, Vero-E6 cells
outcome_measure: CC50 at 24 h

>>> result("CCCCCCCCCCCCOC(=O)c1cc(O)c(O)c(O)c1 [LG, Lauryl Gallate]")
"90.1 µM"

---

experiment: Cell viability by MTT assay (cytotoxicity), Caco-2
test_settings: human, Caco-2 cells
outcome_measure: CC50 at 24 h (µM)

>>> quantitative_result("CCCCCCCCCCCCOC(=O)c1cc(O)c(O)c(O)c1 [LG, Lauryl Gallate]")
97.1

Origin of measurements: patent EP4104829A1
